assay: NCI Yeast Anticancer Drug Screen. Data for the bub3 strain (AID 167); conditions: S. cerevisiae bub3 mutant strain, at 5.0 µM (retest, dose inferred, filed as 0.5)
About 79,000 compounds went through this panel and 15% of them were active in at least one assay; those are over-represented in the sample as a whole. Active and inactive are the calls of the source. Cut-off read from the data, not from the text of the source: active = growth inhibition above about 70%; inactive = the rest.
Give one outcome, nothing more. List: yes (1) = active, no (0) = inactive

Sample answers from the record:
                                   compound  answer_label
0  CN(C)CCCNc1c2ccccc2nc2cccc([N+](=O)[O-])c12       yes (1)
1                     CCCCCCCCNc1ccc(Cl)cc1        no (0)
2  COC(=O)c1nnn(-c2cc(Cl)ccc2Cl)c1C(=O)c1ccc(Cl)c(Cl)c1        no (0)
3        Clc1ccc2nc3c(c(N4CCCCC4)c2c1)CCCC3        no (0)
4  CCCCC(CCc1ccccc1[N+](=O)[O-])(C(C)=O)C(=O)OCC (stereo unspecified)        no (0)
5  O=C(C=P(c1ccccc1)(c1ccccc1)c1ccccc1)c1ccccc1-c1ccccc1C(=O)C=P(c1ccccc1)(c1ccccc1)c1ccccc1       yes (1)

Incoming: Per the records of this test, what outcome belongs to COc1cccc(N2CCN(CC(O)COc3cc4c(c5c3CCCC5)CCCC4)CC2)c1 (stereo unspecified) ?
Outgoing: no (0)

Incoming: Recorded test outcome, item Nc1ccccc1Sc1ccc(C(F)(F)F)cc1[N+](=O)[O-]
Outgoing: no (0)

Incoming: I would be grateful if you could indicate the recorded call for CCc1ccccc1NC(=O)C(C#N)C1=C(Cl)C(=O)c2ccccc2C1=O (stereo unspecified) .
Outgoing: yes (1)

Incoming: What classification did CCOc1ccc2nc3cc(Cl)ccc3[n+](C)c2c1 end up with in this test?
Outgoing: no (0)

Incoming: Field: outcome | Entry: Clc1ccc(CSCCc2ccncc2)cc1Cl
Outgoing: no (0)
